System: BT-549
Assay: NCI tumour cell line growth inhibition, 48 h
Active and inactive are the calls of the source. Rule as the data show it: active = GI50 up to about 1.1 µM and inactive = higher.
EXPERIMENTAL READOUT: GI50

Cc1c(Cl)ccc2c1NC(=O)C2(O)CC(=O)c1ccc(Cl)cc1Cl (stereo not given) :: > 50 µM (inactive)

# evaluate next
Request: Form field: reported GI50 of COc1ccc(/N=N/C(=N\c2ccccc2)c2ccc(N(CCC#N)CCC#N)cc2)cc1
Response: 47.6 µM (inactive)

* * *

Test system: MDA-MB-231
Experiment: NCI tumour cell line growth inhibition, 48 h
Calls of active or inactive are those of the source. No stated cut-off is given here; in the data, active = GI50 up to about 1.1 µM and inactive = higher.
EXPERIMENTAL READOUT: GI50

Known GI50 results, listed for orientation:
Cc1nn(C(=O)c2ccc(Cl)cc2)c2c1C(c1ccc(O)cc1)SC(=N)N2 (stereo not drawn) :: > 10 µM (inactive)
N/C(=N\O)N/N=C/c1cc(Br)cc(Br)c1O :: 4.6 µM (inactive)

# evaluate next
Request: // fetch MDA-MB-231 GI50 for O=c1ccn(C/C=C/c2ccccc2)c(=S)n1C/C=C/c1ccccc1
Response: > 100 µM (inactive)

Source: ChEMBL document CHEMBL1201862
